study_target: CYP2C9 (Homo sapiens, UniProt P11712)
Construct: human liver microsomes (0.25 mg/mL); from tissue; host or cells: human liver microsomes
Sequence (P11712 whole entry): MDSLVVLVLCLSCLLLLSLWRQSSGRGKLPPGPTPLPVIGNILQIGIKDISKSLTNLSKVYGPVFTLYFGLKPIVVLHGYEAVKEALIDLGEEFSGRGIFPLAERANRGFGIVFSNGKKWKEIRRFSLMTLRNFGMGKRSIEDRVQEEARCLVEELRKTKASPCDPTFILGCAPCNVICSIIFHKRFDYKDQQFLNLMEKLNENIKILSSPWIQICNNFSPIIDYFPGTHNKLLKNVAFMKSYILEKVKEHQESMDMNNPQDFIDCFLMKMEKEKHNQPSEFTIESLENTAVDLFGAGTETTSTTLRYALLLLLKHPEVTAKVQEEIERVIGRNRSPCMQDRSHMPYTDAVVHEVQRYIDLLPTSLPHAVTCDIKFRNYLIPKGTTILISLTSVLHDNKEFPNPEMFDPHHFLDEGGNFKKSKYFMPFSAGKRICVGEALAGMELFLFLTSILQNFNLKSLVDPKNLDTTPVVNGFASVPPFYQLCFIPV
test_description: Inhibitory effect on CYP coenzyme activity, human liver microsomes
Assay type: in vitro ADME
condition_details: compound 10 μM; human liver microsomes 0.25 mg/mL; substrate diclofenac; 15 minutes
measurement_name: CYP2C9
Numbers only.

Below: 4 compounds and their reported CYP2C9.
Cc1ccc(NC(=O)c2ccc(NN=C(C#N)C#N)cn2)cn1	49.1
Cc1cc(NN=C(C#N)C#N)ccc1OCc1cc[nH]n1	19.4
N#CC(C#N)=NNc1ccc(NC(=O)c2ccc(F)cc2)nc1	40.3
Cc1cnc(C(=O)Nc2ccc(NN=C(C#N)C#N)cn2)cn1	71.1

Switching to the query record.
## Input # CYP2C9 lookup, item N#CC(C#N)=NNc1ccc(OCc2ncccn2)cc1
## Output 70

###

test_description: Liver microsome stability
Type: in vitro ADME, human
condition_details: amount of substrate remaining; compound 1 μM, 30 minutes, 37° C., NADPH
Consider the cut-off 70%. If the recorded Human (%) is strictly smaller, the label is class 1; if not, the label is class 0.

See these solved cases before continuing.
COc1cc(NN=C(C#N)C#N)ccc1OCc1cc2ccccc2s1	class 1
Cc1cc(NN=C(C#N)C#N)ccc1OCc1cccnc1	class 0
N#CC(C#N)=NNc1ccc(NC(=O)c2ccc(F)cc2)nc1	class 0
Cc1cc(NN=C(C#N)C#N)ccc1OCc1cscn1	class 0
Cc1cc(NN=C(C#N)C#N)ccc1OCc1ncccn1	class 0
Cc1cc(F)cc(C(=O)Nc2ccc(NN=C(C#N)C#N)cn2)c1	class 0

## Input is_below(Human (%), 70%) for COc1cc(NN=C(C#N)C#N)ccc1OCc1nc2ccccc2o1 ?
## Output class 1

## Input is_below(Human (%), 70%) for COc1cc(NN=C(C#N)C#N)ccc1OCc1ccc(C(F)(F)F)cc1 ?
## Output class 0

## Input is_below(Human (%), 70%) for Cc1cnc(C(=O)Nc2ccc(NN=C(C#N)C#N)c(C)c2)cn1 ?
## Output class 0

###

study_target: tau protein (Homo sapiens)
Construct: fused on or other part: Split fluorescent-protein halves for BiFC are fused to tau; In the published tau-BiFC line these are Venus VN173 and VC155
Sequence (P10636 2-441 isoform P10636-8 limits assumed): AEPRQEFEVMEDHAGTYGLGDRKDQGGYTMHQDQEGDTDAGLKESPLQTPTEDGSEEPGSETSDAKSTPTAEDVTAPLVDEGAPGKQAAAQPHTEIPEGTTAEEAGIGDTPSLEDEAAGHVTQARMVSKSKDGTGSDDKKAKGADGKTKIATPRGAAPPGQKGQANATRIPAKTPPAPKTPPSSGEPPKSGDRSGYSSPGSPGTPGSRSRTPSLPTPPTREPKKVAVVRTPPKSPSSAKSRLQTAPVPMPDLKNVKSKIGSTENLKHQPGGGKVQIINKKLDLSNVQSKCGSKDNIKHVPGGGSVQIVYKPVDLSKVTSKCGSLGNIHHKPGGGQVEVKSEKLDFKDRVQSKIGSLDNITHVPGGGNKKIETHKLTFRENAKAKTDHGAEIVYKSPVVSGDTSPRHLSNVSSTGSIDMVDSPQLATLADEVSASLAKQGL
test_description: Tau-BiFC cell model: inhibition of tau protein aggregation
condition_details: Tau BiFC in cells; with Forskolin 30 μM, 48 hours
What IC50 was measured for each of the following?

Below: 3 compounds and their reported IC50.
Cc1cc(C(=O)Nc2ccc(NN=C(C#N)C#N)cn2)ccc1F [Compound 21]	750 nM
N#CC(C#N)=NNc1ccc(NC(=O)c2ccc(C(F)(F)F)cc2)nc1 [Compound 27]	370 nM
Cc1cc(NN=C(C#N)C#N)ccc1NC(=O)c1cscn1 [Compound 111]	500 nM

# per-item lookup of IC50; items listed below
1. COc1cc(NN=C(C#N)C#N)ccc1OCc1cc[nH]n1 [Compound 168]
2. COc1cc(NN=C(C#N)C#N)ccc1OCc1cccnc1 [Compound 160]
3. Cc1cccc(C(=O)Nc2ccc(NN=C(C#N)C#N)cn2)c1F [Compound 20]
4. Cc1ccc(C(=O)Nc2ccc(NN=C(C#N)C#N)cn2)cc1 [Compound 23]
5. N#CC(C#N)=NNc1ccc(Oc2ccccc2)nc1 [Compound 68]
6. N#CC(C#N)=NNc1ccc(NC(=O)c2cccs2)nc1 [Compound 30]
7. N#CC(C#N)=NNc1ccc(OCCc2ccc(C(F)(F)F)cc2)cc1 [Compound 121]

## Output
132 nM
7 nM
180 nM
130 nM
110 nM
80 nM
4610 nM
